Cited source: ChEMBL document CHEMBL4431389

# target: albumin (Homo sapiens, UniProt P02768)
# Sequence (P02768 whole entry): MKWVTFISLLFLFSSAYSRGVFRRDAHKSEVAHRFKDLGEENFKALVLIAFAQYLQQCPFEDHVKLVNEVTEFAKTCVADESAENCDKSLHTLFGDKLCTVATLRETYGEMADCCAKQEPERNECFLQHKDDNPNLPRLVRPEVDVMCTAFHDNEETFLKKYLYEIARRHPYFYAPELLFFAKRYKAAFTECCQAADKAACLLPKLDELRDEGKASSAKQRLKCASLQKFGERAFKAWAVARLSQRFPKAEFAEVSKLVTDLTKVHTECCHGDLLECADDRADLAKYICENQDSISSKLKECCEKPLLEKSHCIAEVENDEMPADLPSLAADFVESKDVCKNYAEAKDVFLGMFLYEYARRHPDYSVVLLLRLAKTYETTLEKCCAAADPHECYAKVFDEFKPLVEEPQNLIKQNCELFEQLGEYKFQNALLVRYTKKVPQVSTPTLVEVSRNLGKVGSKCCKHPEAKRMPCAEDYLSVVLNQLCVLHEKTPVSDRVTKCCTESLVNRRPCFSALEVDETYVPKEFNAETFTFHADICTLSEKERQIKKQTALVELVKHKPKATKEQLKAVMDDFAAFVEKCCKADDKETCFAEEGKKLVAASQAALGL
# assay.name: Binding affinity to human serum albumin by HPLC analysis
# Format: ADME
# conditions.used: read-out: PB (converted)
The following molecules are listed with their measured fraction unbound values.
Response field accepts a number only; no unit should be typed.

In [3]: df
Out[3]:
                                smiles_data        value_type  reported_value
0    CN(C)c1ccc(-c2cc3nccnc3c(NCCCCN)n2)cn1  fraction unbound            0.11
1  Cc1ccc(-c2cc3nc[nH]c(=O)c3c(NC[C@H]3CCCNC3)n2)cc1  fraction unbound            0.09
2  CN(C)c1ccc(-c2cc3nccnc3c(OC[C@@H]3CCCNC3)n2)cn1  fraction unbound            0.09
3  CN(C)c1ccc(-c2cc(NC[C@H]3CCCNC3)c3cccnc3c2)cn1  fraction unbound            0.05
4  O=C1CN(c2cc3nccnc3c(NC[C@H]3CCCNC3)n2)CCN1  fraction unbound            0.41
5  CN(C)c1ccc(-c2cc3nccnc3c(NCCC(N)=O)n2)cn1  fraction unbound            0.04

Lab note: next molecule to report on.
Missing value: fraction unbound, albumin (Homo sapiens, UniProt P02768), entry `CN(C)c1ccc(-c2cc3nccnc3c(OC[C@H]3CCCNC3)n2)cn1` . Fill in?
0.1
